Target: CB1 (mutant) (Homo sapiens, UniProt P21554)
Sequence (P21554 1-417, change not shown): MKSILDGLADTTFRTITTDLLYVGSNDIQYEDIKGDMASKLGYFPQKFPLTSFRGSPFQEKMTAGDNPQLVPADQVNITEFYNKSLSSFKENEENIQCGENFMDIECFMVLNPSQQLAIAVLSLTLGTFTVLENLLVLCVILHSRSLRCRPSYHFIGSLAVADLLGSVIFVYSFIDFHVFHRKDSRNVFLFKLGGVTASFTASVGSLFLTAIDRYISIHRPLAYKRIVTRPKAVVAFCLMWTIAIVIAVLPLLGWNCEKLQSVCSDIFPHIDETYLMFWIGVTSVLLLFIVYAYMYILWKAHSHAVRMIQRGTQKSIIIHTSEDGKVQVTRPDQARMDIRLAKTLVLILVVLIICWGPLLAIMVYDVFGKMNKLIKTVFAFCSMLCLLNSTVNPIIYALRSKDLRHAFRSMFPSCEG
Assay: R-SAT functional receptor assay, CB1 (mutant, truncated after amino acid 417)
Type: cell-based
Conditions: Appendix A; R-SAT CB1; receptor form (mutant or wild-type) not stated; read-out: pIC50 (converted)
Provide the reported IC50 of each item.
The answer is to be given in nM; state only the numeric part.

## Task Annotate the compound Cc1ccsc1C1=Nc2cc(C(=O)NC(C)C)ccc2Sc2ccccc21 [drawing 684] with its measured IC50.
## Result 63.1

## Task Annotate the compound CCCCNC(=O)c1ccc2c(c1)N=C(c1ccccn1)c1ccccc1S2 [drawing 907] with its measured IC50.
## Result 15.8

## Task Annotate the compound CCCCNC(=O)c1ccc2c(c1)N=C(c1ccc(Cl)cc1Cl)c1ccccc1S2 [drawing 1165] with its measured IC50.
## Result 39.8

## Task Annotate the compound CCCCC1=Nc2cc(C(=O)N3CCN(c4ccc(C)cc4C)CC3)ccc2Sc2ccccc21 with its measured IC50.
## Result 316

## Task Annotate the compound CCCC1=Nc2cc(C(=O)NCCN(CC)CC)ccc2Sc2ccccc21 with its measured IC50.
## Result 1580

## Task Annotate the compound COCCNC(=O)c1ccc2c(c1)N=C(c1ccccc1Cl)c1ccccc1S2 with its measured IC50.
## Result 794

## Task Annotate the compound O=C(NC1CCCC1)c1ccc2c(c1)N=C(c1cccc(F)c1)c1ccccc1S2 [drawing 742] with its measured IC50.
## Result 79.4

## Task Annotate the compound CC(NC(=O)c1ccc2c(c1)N=C(c1ccc(Cl)cc1)c1ccccc1S2)c1ccccc1 (stereo not drawn) [drawing 1107] with its measured IC50.
## Result 39.8

## Task Annotate the compound Cc1ccc(CNC(=O)c2ccc3c(c2)N=C(c2ccc(Cl)s2)c2ccccc2S3)o1 [drawing 765] with its measured IC50.
## Result 10

## Task Annotate the compound CCCCNC(=O)c1ccc2c(c1)N=C(C#C[Si](C)(C)C)c1ccccc1S2 with its measured IC50.
## Result 631

## Task Annotate the compound O=C(NCCc1ccncc1)c1ccc2c(c1)N=C(c1ccc(Cl)cc1)c1ccccc1S2 [drawing 1135] with its measured IC50.
## Result 39.8

## Task Annotate the compound CCCCNC(=O)c1ccc2c(c1)N=C(c1ccc(Cl)s1)c1cc(Cl)ccc1S2 [drawing 995] with its measured IC50.
## Result 25.1

## Task Annotate the compound CCCC1=Nc2cc(C(=O)NCc3ccccc3)ccc2Sc2ccccc21 with its measured IC50.
## Result 20

## Task Annotate the compound Cc1ccsc1C1=Nc2cc(C(=O)NCc3ccncc3)ccc2Sc2ccccc21 with its measured IC50.
## Result 158

## Task Annotate the compound CC(C)CCNC(=O)c1ccc2c(c1)N=C(c1ccccc1Cl)c1ccccc1S2 [drawing 1053] with its measured IC50.
## Result 31.6

## Task Annotate the compound O=C(NCc1cccc(Cl)c1)c1ccc2c(c1)N=C(c1ccc(Cl)cc1)c1cc(F)ccc1S2 [drawing 837] with its measured IC50.
## Result 12.6

## Task Annotate the compound COc1ccc(C2=Nc3cc(C(=O)NCc4cccnc4)ccc3Sc3ccccc32)cc1 [drawing 712] with its measured IC50.
## Result 79.4

## Task Annotate the compound Cc1cccc(C2=Nc3cc(C(=O)NCCC(F)(F)F)ccc3Sc3ccccc32)n1 [drawing 815] with its measured IC50.
## Result 12.6
